Where do these numbers come from? They come from paper PMC4200806.

Target: Spleen tyrosine kinase (Syk) (Homo sapiens)
Experiment: in vitro kinase assay with purified recombinant Syk (ADP-Glo, poly(Glu,Tyr) substrate); Ki from ATP-competition kinetics; IC50 […]
Assay type: biochemical
parameter-measured: Ki (nM)
Could you give me the number in nM? Just the number is fine.

Request: Item Oc1ccc(/C=C/c2cc(O)cc3oc(-c4ccc(O)cc4)c(-c4cc(O)cc(O)c4)c23)cc1 has what recorded Ki?
Result: 61.1
